Here's what we have: log10(IC50) numbers for Fatty-acid amide hydrolase 1 (Rattus norvegicus, UniProt P97612).
Form field - Quantity: IC50; Unit: µM; Scale: log10

Quick one: log10(IC50) of CC(C)(C)c1cccc(OC(=O)NCCc2c[nH]c3ccc(O)cc23)c1 ?
0.57

Quick one: log10(IC50) of CCCCC/C=C\C/C=C\CCCCCCCC(=O)NCCc1c[nH]c2ccc(O)cc12 ?
1.48

Quick one: log10(IC50) of O=C(CCCCCCCCc1ccccc1)NCCc1c[nH]c2ccc(O)cc12 ?
1.48

Quick one: log10(IC50) of O=C(NCCc1c[nH]c2ccc(O)cc12)Oc1cccc(Cl)c1 ?
0.28

Quick one: log10(IC50) of CCCCC/C=C\C/C=C\C/C=C\CCCCC(=O)NCCc1c[nH]c2ccc(O)cc12 ?
1.00

Quick one: log10(IC50) of O=C(NCCc1c[nH]c2ccc(O)cc12)Oc1ccc(C(F)(F)F)cc1 ?
0.81

Quick one: log10(IC50) of O=C(NCCc1c[nH]c2ccc(O)cc12)Oc1ccc(I)cc1 ?
0.70
